Recorded melting point, one value per entry.

Below, 3 compounds whose answers are already recorded.
CC(C)n1nc(-c2c(-c3ccccc3)nc(N)nc2-n2cncn2)ccc1=O [Example 131] :: 266 to 268 °C
CC(C)Nc1nc(N)nc(-c2ccccc2)c1-c1ccc(=O)n(C(C)C)n1 [Example 110] :: 234 to 236 °C
CC(C)n1nc(-c2c(NCc3ccccc3)nc(N)nc2-c2ccc(F)cc2)ccc1=O [Example 156] :: 191 to 192 °C

The record that follows has no melting point shown yet.
Which melting point reading was recorded for the compound CC(C)n1nc(-c2c(NCCN)nc(N)nc2-c2ccccc2)ccc1=O [Example 116] ?
194 to 197 °C
